Values were extracted from patent US20210292304A1.

Collected half-life values appear next to each entry.
protocol_notes: Pharmacokinetics in mice
Assay type: in vivo
test_parameters: ICR, mouse, plasma, 5 mg/kg, po. 5 mpk, read-out: Half life T1/2 (converted)

molecule	reading_unit	half-life
[2H]C([2H])([2H])C(c1cc(Oc2c(Cl)cc(-n3nc(C#N)c(=O)[nH]c3=O)cc2Cl)n[nH]c1=O)C([2H])([2H])[2H]	h	3.19
[2H]C([2H])([2H])C([2H])(c1cc(Oc2c(Cl)cc(-n3nc(C#N)c(=O)[nH]c3=O)cc2Cl)n[nH]c1=O)C([2H])([2H])[2H]	h	2.7
[2H]c1c(Oc2c(Cl)cc(-n3nc(C#N)c(=O)[nH]c3=O)cc2Cl)n[nH]c(=O)c1C([2H])(C([2H])([2H])[2H])C([2H])([2H])[2H]	h	3.47
[2H]c1c(Oc2c(Cl)cc(-n3nc(C#N)c(=O)[nH]c3=O)cc2Cl)n[nH]c(=O)c1C(C([2H])([2H])[2H])C([2H])([2H])[2H]	h	4.7
[2H]C([2H])([2H])C(C)c1cc(Oc2c(Cl)cc(-n3nc(C#N)c(=O)[nH]c3=O)cc2Cl)n[nH]c1=O (stereo not drawn)	h	3
CC(C)c1cc(Oc2c(Cl)cc(-n3nc(C#N)c(=O)[nH]c3=O)cc2Cl)n[nH]c1=O [MGL-3196, reference compound]	h	2.81
